ASSAYED_SYSTEM: Polyunsaturated fatty acid 5-lipoxygenase (Homo sapiens)
EXPERIMENT_SUMMARY: Inhibition of human recombinant 5-LOX expressed in Escherichia coli […] incubated 10 mins before substrate addition by fluorescence spectrophotometry based cell free system assay
pIC50: −log10 of the molar value.
METRIC: pIC50

>  <MOLECULE>
C/C(NCc1ccc(Cl)c(Cl)c1)=C1\C(=O)N(c2nc3ccccc3s2)N=C1C(F)(F)F

>  <pIC50>
4.15

$$$$
>  <MOLECULE>
O=C(NC1c2ccccc2Oc2ccccc21)c1ccc(Cl)c([N+](=O)[O-])c1

>  <pIC50>
4.17

$$$$
>  <MOLECULE>
Cc1cccc(C2=N/C(=C\c3ccc(-c4cccc(Cl)c4)o3)C(=O)O2)c1

>  <pIC50>
4.85

$$$$
>  <MOLECULE>
COc1ccc(/C=C2\N=C(c3ccc(Cl)c([N+](=O)[O-])c3)OC2=O)c(OC)c1OC

>  <pIC50>
4.70

$$$$
>  <MOLECULE>
c1ccc2c(c1)OCC(c1nn3c(Cn4nnc5ccccc54)nnc3s1)O2 (stereo unspecified)

>  <pIC50>
4.01

$$$$
>  <MOLECULE>
Cc1cc(Cl)ccc1NC(=O)Cn1nnc2sc3c(c2c1=O)CCCC3

>  <pIC50>
4.36

$$$$
>  <MOLECULE>
O=C1c2ccc([N+](=O)[O-])cc2C(=O)N1CNc1ccc([N+](=O)[O-])cc1

>  <pIC50>
5.28

$$$$
>  <MOLECULE>
COc1ccc(-c2nnc3sc(/C=C/c4ccccc4OC)nn23)cc1

>  <pIC50>
4.77

$$$$
>  <MOLECULE>
N#C/C(=C(/O)c1ccc(Cl)c([N+](=O)[O-])c1)c1nc2ccccc2s1

>  <pIC50>
4.28

$$$$
>  <MOLECULE>
c1ccc(SCc2nnc3sc(-c4ccc5c(c4)OCCO5)nn23)cc1

>  <pIC50>
4.15

$$$$

1. Cc1nn(Cc2ccc(F)cc2)c(C)c1NC(=O)C1CC(c2cccc(Br)c2)=NO1 (stereo unspecified)
2. O=c1/c(=C/c2cc(I)c(O)c([N+](=O)[O-])c2)sc2nc3ccccc3n12
3. Cc1ccc(Sc2nc([N+](=O)[O-])nn2CC(=O)c2ccccc2)cc1
[in] List from greatest to least pIC50. Show the ranking through the labels, in the order asked for.
[out] 3, 2, 1

* * *

ASSAYED_SYSTEM: Polyunsaturated fatty acid 5-lipoxygenase (Homo sapiens, UniProt P09917)
Sequence (P09917 whole entry): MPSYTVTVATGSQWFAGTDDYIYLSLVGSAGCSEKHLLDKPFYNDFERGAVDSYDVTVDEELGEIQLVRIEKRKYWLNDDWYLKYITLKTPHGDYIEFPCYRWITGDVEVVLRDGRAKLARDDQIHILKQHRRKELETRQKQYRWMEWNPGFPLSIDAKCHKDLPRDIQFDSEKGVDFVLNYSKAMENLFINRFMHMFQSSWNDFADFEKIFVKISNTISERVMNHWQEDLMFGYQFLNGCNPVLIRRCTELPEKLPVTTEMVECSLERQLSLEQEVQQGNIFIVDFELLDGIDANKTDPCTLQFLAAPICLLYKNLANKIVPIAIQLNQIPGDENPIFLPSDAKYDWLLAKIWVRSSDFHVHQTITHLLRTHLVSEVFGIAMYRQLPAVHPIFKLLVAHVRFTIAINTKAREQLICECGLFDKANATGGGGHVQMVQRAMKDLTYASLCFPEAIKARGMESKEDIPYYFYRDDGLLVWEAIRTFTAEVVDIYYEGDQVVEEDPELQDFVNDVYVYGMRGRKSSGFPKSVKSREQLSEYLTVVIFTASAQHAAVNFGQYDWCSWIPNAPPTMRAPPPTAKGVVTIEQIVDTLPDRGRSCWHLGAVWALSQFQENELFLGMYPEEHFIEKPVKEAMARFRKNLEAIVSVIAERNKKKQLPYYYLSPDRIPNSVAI
EXPERIMENT_SUMMARY: Inhibition of human recombinant 5-LOX expressed in Escherichia coli […] incubated 10 mins before substrate addition by fluorescence spectrophotometry based cell free system assay
pIC50: −log10 of the molar value.
METRIC: pIC50

Sample answers from the record:
>  <SMILES_CODE>
CCOc1ccc(S(=O)(=O)N(CC(=O)N2CCc3ccccc3C2)c2ccccc2)cc1

>  <ASSAYED_SYSTEM>
Polyunsaturated fatty acid 5-lipoxygenase (Homo sapiens, UniProt P09917)

>  <NUMERIC_READOUT>
4.54

$$$$
>  <SMILES_CODE>
COc1cc(Cl)cc(/C=C2/SC(=O)N(Cc3ccc(F)cc3)C2=O)c1O

>  <ASSAYED_SYSTEM>
Polyunsaturated fatty acid 5-lipoxygenase (Homo sapiens, UniProt P09917)

>  <NUMERIC_READOUT>
4.17

$$$$
>  <SMILES_CODE>
O=[N+]([O-])c1ccc(CSc2cc3ccccc3[nH]2)c([N+](=O)[O-])c1

>  <ASSAYED_SYSTEM>
Polyunsaturated fatty acid 5-lipoxygenase (Homo sapiens, UniProt P09917)

>  <NUMERIC_READOUT>
6.10

$$$$

1. O=C(Oc1cccc2ccccc12)c1cc([N+](=O)[O-])cc([N+](=O)[O-])c1
2. Cc1ccc2cccc(OC(=O)c3cccc([N+](=O)[O-])c3)c2n1
3. COC(=O)c1ccc(NC(=S)NC(=O)c2cc(-c3ccccc3)nc3ccccc23)cc1
4. CC(C)(C)OC(=O)NNS(=O)(=O)c1cccc([N+](=O)[O-])c1
[in] Arrange the 4 entries by pIC50 so the values rise. Show the ranking through the labels, in the order asked for.
[out] 4, 3, 2, 1
